System: DU-145 prostate
MEASUREMENT_NOTES: NCI tumour cell line growth inhibition, 48 h
Reported GI50 values are given for each entry in this list.
MEASURED_PROPERTY: GI50

>>> recorded_value("CCC(=O)c1c(C(F)(F)F)n([O-])c2cc(F)c(F)cc2[n+]1=O")
"0.832 µM"
>>> recorded_value("COc1cc2c(=O)[nH]c3cc([N+](=O)[O-])ccc3c2cc1[N+](=O)[O-]")
"4.63 µM"
>>> recorded_value("CCOC(=O)c1cnc2c(C)cccc2c1Nc1ccc(C(C)=O)cc1")
"33.3 µM"
>>> recorded_value("COc1ccc2c(OCc3nnc4ccc(-c5ccccc5)nn34)ccnc2c1")
"> 100 µM"
>>> recorded_value("COc1cc(-c2nn(-c3cccc(NC(=O)c4ccc(Cl)c(C(F)(F)F)c4)c3)cc2-c2ccncc2)ccc1Cl")
"5.46 µM"
>>> recorded_value("c1cc2c(cn1)Nc1ccncc1S2")
"44.5 µM"

Source of measurements: PubChem BioAssay (NCI)
